Source: patent US20250206841A1

Biological target: T1, human Trop-2-His protein (human, UniProt P09758 27-274)
T1 construct: extracellular domain; Assay paragraphs say only 'Trop-2-His'; also called hTrop-2; Kactus Cat #TRP-HM121; not shown: His tag
T1 sequence (looked up): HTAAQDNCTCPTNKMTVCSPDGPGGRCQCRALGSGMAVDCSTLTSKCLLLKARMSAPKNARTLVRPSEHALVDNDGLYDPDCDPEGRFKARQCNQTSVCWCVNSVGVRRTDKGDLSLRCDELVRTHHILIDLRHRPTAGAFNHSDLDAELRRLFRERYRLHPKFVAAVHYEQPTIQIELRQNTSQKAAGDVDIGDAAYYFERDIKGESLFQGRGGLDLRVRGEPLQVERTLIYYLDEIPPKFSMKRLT
Experiment: BLI (Gator Plus), purified Ab on HFC probe
metric: koff (s⁻¹)

| binder | reported.value |
| --- | --- |
| 9D7-2 (antibody, V domains shown) VH: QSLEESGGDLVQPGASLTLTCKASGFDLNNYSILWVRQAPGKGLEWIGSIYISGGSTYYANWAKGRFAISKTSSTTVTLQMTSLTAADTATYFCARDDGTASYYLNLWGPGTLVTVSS VL: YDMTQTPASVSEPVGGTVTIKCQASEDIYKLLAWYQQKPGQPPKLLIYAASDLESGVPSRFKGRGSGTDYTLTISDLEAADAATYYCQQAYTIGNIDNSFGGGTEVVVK | 0.00126 |
